# TARGET_ENTITY: SARS-CoV-2 spike RBD, wild type (SARS-CoV-2 (wild type), UniProt P0DTC2 319-541)
# ASSAY_TEXT: flow cytometry, RBD-coated Ni beads; room temperature; SPR: PBS + 5 mM MgCl2, 300 mM NaCl, 400 nM BLib, 2 ug/mL salmon sperm DNA, 25 C; flow cytometry in binding buffer, RT; neutralization in 10% FBS, 37 C; cross-linking in PBS pH 7.4 (SI: HEPES), RT
# CONDITION_INFO: protein: commercial
pKd: −log10 of the molar value.
VALUE_KIND: pKd

• ATTACCGATGGCTTGTTTGTAATGTAGGGTTCCGTCGGAT (ssDNA) [RApt] = 8.23
